# inhibition at 3.3 µM per record follows
target entity: Human recombinant enteropeptidase (Homo sapiens)
Construct: purchased ITSI-Biosciences, LLC #REN-260
measurement description: Human enteropeptidase inhibitory activity
Format: biochemical
run parameters: 3.3 uM test compound; fluorescence intensity 2 hours after start of reaction; read-out: Inhibition rate at 3.3 uM (%)
Numeric answer only, unit % assumed.

Completed entries (count: 5):
compound	target entity	attribute measured	result number
N=C(N)Nc1ccc(C(=O)Oc2ccc(CCC(=O)NCCS(=O)(=O)O)c(C3=NOC(CC(=O)O)(CC(=O)O)C3)c2)cc1	Human recombinant enteropeptidase (Homo sapiens)	inhibition at 3.3 µM	101
Cc1c(OC(=O)c2ccc(NC(=N)N)cc2)cccc1C1=NOC(CC(=O)O)(C(=O)O)C1 (stereo not drawn)	Human recombinant enteropeptidase (Homo sapiens)	inhibition at 3.3 µM	100
N=C(N)Nc1ccc(C(=O)Oc2ccc(C3CCN(C(=O)CCC(=O)N[C@@H](CC(=O)O)C(=O)O)CC3)c(C3=NOC(CC(=O)O)(CC(=O)O)C3)c2)cc1	Human recombinant enteropeptidase (Homo sapiens)	inhibition at 3.3 µM	100
N=C(N)Nc1ccc(C(=O)Oc2ccc(-c3ccccc3)c(C3=NOC(CC(=O)O)(C(=O)O)C3)c2)cc1 (stereo not drawn)	Human recombinant enteropeptidase (Homo sapiens)	inhibition at 3.3 µM	101
N=C(N)Nc1ccc(C(=O)Oc2cc(CCC(=O)N[C@@H](CC(=O)O)C(=O)O)cc(C3=NOC(CC(=O)O)(CC(=O)O)C3)c2)cc1	Human recombinant enteropeptidase (Homo sapiens)	inhibition at 3.3 µM	100

# next compound below
Quick one: inhibition at 3.3 µM for `N=C(N)Nc1ccc(C(=O)Oc2ccc(CCC(=O)O)c(C3=NOC(CC(=O)O)(CC(=O)O)C3)c2)cc1` ?
100

* * *

target entity: Human recombinant enteropeptidase (Homo sapiens, UniProt P98073)
Construct: purchased ITSI-Biosciences, LLC #REN-260
Sequence (P98073 whole entry): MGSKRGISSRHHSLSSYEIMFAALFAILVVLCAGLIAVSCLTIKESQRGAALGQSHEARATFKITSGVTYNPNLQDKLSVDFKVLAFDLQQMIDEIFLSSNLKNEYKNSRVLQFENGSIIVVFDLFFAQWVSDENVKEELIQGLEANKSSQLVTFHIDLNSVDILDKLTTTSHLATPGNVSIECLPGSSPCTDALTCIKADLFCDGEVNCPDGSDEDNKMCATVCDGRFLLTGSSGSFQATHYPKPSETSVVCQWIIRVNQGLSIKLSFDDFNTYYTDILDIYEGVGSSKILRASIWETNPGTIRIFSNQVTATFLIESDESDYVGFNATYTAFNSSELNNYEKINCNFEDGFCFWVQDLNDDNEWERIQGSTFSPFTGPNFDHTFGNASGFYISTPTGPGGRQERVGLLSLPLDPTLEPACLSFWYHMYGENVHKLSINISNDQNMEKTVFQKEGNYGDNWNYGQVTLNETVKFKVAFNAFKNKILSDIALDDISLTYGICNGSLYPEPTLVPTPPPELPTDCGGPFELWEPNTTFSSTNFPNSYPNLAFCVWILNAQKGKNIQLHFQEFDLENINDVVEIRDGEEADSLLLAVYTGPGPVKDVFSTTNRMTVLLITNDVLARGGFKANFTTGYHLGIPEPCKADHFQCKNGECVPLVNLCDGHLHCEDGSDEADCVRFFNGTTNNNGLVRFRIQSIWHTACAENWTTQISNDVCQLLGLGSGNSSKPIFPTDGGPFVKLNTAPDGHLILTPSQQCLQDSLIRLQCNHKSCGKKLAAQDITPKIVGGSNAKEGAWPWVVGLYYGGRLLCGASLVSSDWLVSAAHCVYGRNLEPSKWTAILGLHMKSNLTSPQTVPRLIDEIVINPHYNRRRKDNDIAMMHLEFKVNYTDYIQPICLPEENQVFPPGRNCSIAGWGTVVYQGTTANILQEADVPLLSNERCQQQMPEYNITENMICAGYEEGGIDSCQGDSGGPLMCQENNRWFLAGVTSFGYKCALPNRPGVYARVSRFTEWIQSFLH
measurement description: Human enteropeptidase inhibitory activity
Type: biochemical
run parameters: 3.3 uM test compound; fluorescence intensity 2 hours after start of reaction; read-out: Inhibition rate at 3.3 uM (%)
Where a name gives a salt, the structure may show the parent alone.
attribute measured: inhibition at 3.3 µM (%)
Numeric answer only, unit % assumed.

Please tell me: inhibition at 3.3 µM of N=C(N)Nc1ccc(C(=O)Oc2ccc(C3=NOC(CC(=O)O)(C(=O)O)C3)cc2)cc1 (stereo not shown) [Example 2] , system Human recombinant enteropeptidase (Homo sapiens, UniProt P98073)?
101

Please tell me: inhibition at 3.3 µM of N=C(N)Nc1ccc(C(=O)Oc2ccc(CCC(=O)N[C@@H](CC(=O)O)C(=O)O)c(C3=NOC(CC(=O)O)(C(=O)O)C3)c2)cc1 (stereo partly shown) [Example 18, trifluoroacetate] , system Human recombinant enteropeptidase (Homo sapiens, UniProt P98073)?
100

Please tell me: inhibition at 3.3 µM of CS(=O)(=O)CCNC(=O)CCc1ccc(OC(=O)c2ccc(NC(=N)N)cc2)cc1C1=NOC(CC(=O)O)(CC(=O)O)C1 [Example 27] , system Human recombinant enteropeptidase (Homo sapiens, UniProt P98073)?
100

Please tell me: inhibition at 3.3 µM of N=C(N)Nc1ccc(C(=O)Oc2ccc(C3CCN(CCC(=O)O)CC3)c(C3=NOC(CC(=O)O)(CC(=O)O)C3)c2)cc1 [Example 22, ditrifluoroacetate] , system Human recombinant enteropeptidase (Homo sapiens, UniProt P98073)?
101

Please tell me: inhibition at 3.3 µM of Cc1ccc(C2=NOC(CC(=O)O)(C(=O)O)C2)cc1OC(=O)c1ccc(NC(=N)N)cc1 (stereo not shown) [Example 17] , system Human recombinant enteropeptidase (Homo sapiens, UniProt P98073)?
87

Please tell me: inhibition at 3.3 µM of Cc1ccc(OC(=O)c2ccc(NC(=N)N)cc2)cc1C1=NOC(CC(=O)O)(C(=O)O)C1 (stereo not shown) [Example 3, trifluoroacetate] , system Human recombinant enteropeptidase (Homo sapiens, UniProt P98073)?
101

Please tell me: inhibition at 3.3 µM of N=C(N)Nc1ccc(C(=O)Oc2ccc(CCC(=O)N3CCOCC3)c(C3=NOC(CC(=O)O)(CC(=O)O)C3)c2)cc1 [Example 26] , system Human recombinant enteropeptidase (Homo sapiens, UniProt P98073)?
100

The reported measurements were obtained from patent US10023544B2.
